# Test: Proposed mechanism(s) of liver damage. [column 'MEC' in source]
# Setup Conditions: human
Experimental Readout: Hepatotoxicity (mechanism)

1) CCCc1nn(C)c2c(=O)[nH]c(-c3cc(S(=O)(=O)N4CCN(C)CC4)ccc3OCC)nc12 ... Dose-dependant
2) COc1ccc2[nH]c([S+]([O-])Cc3ncc(C)c(OC)c3C)nc2c1 (stereo unspecified) ... Dose-dependant
3) CCCCOCC(CN1C(=O)N(CC(COCCCC)OC(N)=O)C(=O)C(CC)(c2ccccc2)C1=O)OC(N)=O (stereo unspecified) [DIFEBARBAMATE] ... Allergic
4) C[C@]12C=CC(=O)C=C1CC[C@@H]1[C@@H]2C(=O)C[C@@]2(C)[C@H]1CC[C@]2(O)C(=O)CO ... Dose-dependant

Asked: Look up Hepatotoxicity (mechanism): CC(C)OC(=O)C(C)(C)Oc1ccc(C(=O)c2ccc(Cl)cc2)cc1 [FENOFIBRATE]
Given back: Allergic

Asked: Look up Hepatotoxicity (mechanism): "COc1ccc2c(C(=O)c3ccc(Cl)cc3)c(C)n(CC(=O)O)c2c1"
Given back: Allergic

* * *

# Setup Conditions: human
Quick reference: Hepatotoxicity (severe hepatitis) of the listed items.
Please reply with the value in numeric form only.

Please review the following examples before continuing.
1) C=CC1=C(C(=O)O)N2C(=O)[C@@H](NC(=O)/C(=N\OCC(=O)O)c3csc(N)n3)[C@H]2SC1 ... 0
2) NCC[C@H](O)C(=O)N[C@@H]1C[C@H](N)[C@@H](O[C@H]2O[C@H](CN)[C@@H](O)[C@H](O)[C@H]2O)[C@H](O)[C@H]1O[C@H]1O[C@H](CO)[C@@H](O)[C@H](N)[C@H]1O ... 0
3) O=C(c1cc(O)c(O)c(O)c1)c1ccc(O)c(O)c1O ... 4
4) CC(=O)c1ccc(S(=O)(=O)NC(=O)NC2CCCCC2)cc1 [ACETOHEXAMIDE] ... 0
5) COc1cc([C@@H]2c3cc4c(cc3[C@@H](O[C@@H]3O[C@@H]5CO[C@@H](c6cccs6)O[C@H]5[C@H](O)[C@H]3O)[C@H]3COC(=O)[C@H]23)OCO4)cc(OC)c1O [TENIPOSIDE] ... 0

Asked: Look up Hepatotoxicity (severe hepatitis): "CN(C)[C@@H]1C(O)=C(C(N)=O)C(=O)[C@@]2(O)C(O)=C3C(=O)c4c(O)ccc(Cl)c4[C@@](C)(O)[C@H]3C[C@@H]12"
Given back: 0

Asked: Look up Hepatotoxicity (severe hepatitis): CCN(CC)CC[n+]1ccc2c(C)c3[nH]c4ccc(O)cc4c3c(C)c2c1.[Cl-] [DATELLIPTIUM CHLORIDE]
Given back: 0

Asked: Look up Hepatotoxicity (severe hepatitis): "CCC(=O)[C@@]1(C)CC[C@H]2[C@@H]3CCC4=CC(=O)CCC4=C3CC[C@@]21C"
Given back: 0

Asked: Look up Hepatotoxicity (severe hepatitis): "C[C@]12CCC(=O)C=C1CC[C@@H]1[C@@H]2CC[C@@]2(C)[C@H]1CC[C@]2(C)O"
Given back: 1

Asked: Look up Hepatotoxicity (severe hepatitis): "FCOC(C(F)(F)F)C(F)(F)F"
Given back: 2

Asked: Look up Hepatotoxicity (severe hepatitis): Cc1cc(C(=O)NCCc2ccc(S(=O)(=O)NC(=O)NN3CCCCCC3)cc2)no1 [GLISOXEPIDE]
Given back: 0

Asked: Look up Hepatotoxicity (severe hepatitis): CC1=C(/C=C/C(C)=C/C=C/C(C)=C/C(=O)Nc2ccc(O)cc2)C(C)(C)CCC1 [FENRETINIDE]
Given back: 0

Asked: Look up Hepatotoxicity (severe hepatitis): "CC1=C(/C=C/C(C)=C/C=C/C(C)=C/C(=O)O)C(C)(C)CCC1"
Given back: 2

Asked: Look up Hepatotoxicity (severe hepatitis): CC1CN(c2cc3c(cc2F)c(=O)c(C(=O)O)cn3-c2ccc(F)cc2F)CCN1 (stereo unspecified)
Given back: 0

Asked: Look up Hepatotoxicity (severe hepatitis): "[Se]"
Given back: 0

Asked: Look up Hepatotoxicity (severe hepatitis): "Cc1ccc2c(c1)C(N1CCN(C)CC1)=Nc1ccccc1S2"
Given back: 0
